Reference source: patent US4634704A

Test system: effects of serotonin in the gastric lesion test
Experiment: Antagonistic activity on the effects of serotonin in the gastric lesion test (lesions induced by compound 48/80)
Assay type: in vivo, rat (male, Wistar inbred strain)
Conditions: Rattus norvegicus; read-out: gastric lesion test ED50
REPORTED_PROPERTY: ED50 (mg/kg)
Provide the reading as a plain figure in mg/kg.

Example compounds with recorded ED50:
Fc1ccccc1Cn1c(NC2CCN(CCNc3nccs3)CC2)nc2ccccc21
0.63
Fc1ccc(Cn2c(NC3CCN(CCNc4nc(-c5ccncc5)cs4)CC3)nc3ccccc32)cc1
1.25
CNC(=O)N(CCN1CCC(Nc2nc3ccccc3n2Cc2ccc(F)cc2)CC1)c1nccs1
0.63

Consider the additional compound presented here.
Kindly note the recorded ED50 for Clc1ccc(Cn2c(NC3CCN(CCNc4nccs4)CC3)nc3ccccc32)cc1 , which is 0.63
